Source: PubChem BioAssay (NCI)

System: SF-268 CNS
Assay: NCI tumour cell line growth inhibition, 48 h
readout_type: TGI (µM)

> print(dat)
                                    compound         tgt  readout.type  unit.string  op  measured.value
 1  Cc1cc(C)c2c(c1)Nc1ccccc1P2c1ccccc1 (configuration not stated)  SF-268 CNS           TGI           µM   >             100
 2  C=CCNCCCN1C(=O)c2ccc3c4c(ccc(c24)C1=O)C(=O)N(CCCNCC=C)C3=O  SF-268 CNS           TGI           µM   =            4.41
 3  COP(=O)(OC)C(=NCc1ccccc1)NNc1ccc([N+](=O)[O-])cc1  SF-268 CNS           TGI           µM   =            84.9
 4  COC(=O)c1cc(-c2cc(OC)c(OC)c(OC)c2)[nH]c1N/N=C/c1c(Cl)cccc1Cl  SF-268 CNS           TGI           µM   =            11.2
 5  CS(=O)(=O)OCCn1cnc2nc(NC(=O)c3ccccc3)[nH]c(=O)c21  SF-268 CNS           TGI           µM   >             100
 6  COc1ccc(C2=NN(C(=O)COc3ccc(Cl)cc3)C(O)(c3ccc(Cl)cc3)C2)cc1 (configuration not stated)  SF-268 CNS           TGI           µM   >             100
 7  O=C(O)CCC(NC(=O)c1ccc(Nc2cnc3ccc(C(F)(F)F)cc3n2)cc1)C(=O)O (configuration not stated)  SF-268 CNS           TGI           µM   >             100
 8  Cc1nc(Nc2ccc(F)cc2)c2sc(=S)n(-c3ccc(F)cc3)c2n1  SF-268 CNS           TGI           µM   =              23
 9  C=CCOc1ccc(/C(N=Nc2ccccc2)=N/NC(=O)c2ccccc2)cc1OC  SF-268 CNS           TGI           µM   >             100
10  N#C/C(=C1\NN=C(N)C(c2ccc(Cl)cc2)=C1O)c1ccc(Cl)cc1  SF-268 CNS           TGI           µM   >             100
11  COC1(O)C(=O)c2ccccc2OC1(OC)c1ccccc1 (configuration not stated)  SF-268 CNS           TGI           µM   >             100
12                NC1=C(Br)C(=O)c2ncccc2C1=O  SF-268 CNS           TGI           µM   =            1.92
13  CC(O)(/C=C/c1ccccc1)P(=O)(O)c1ccccc1 (configuration not stated)  SF-268 CNS           TGI           µM   >             100
14      COc1ccc(C(=O)c2sc(Nc3ccccc3)nc2N)cc1  SF-268 CNS           TGI           µM   >             100
15  O=C1/C(=C/c2ccc3c(c2)OCO3)CCC1CN1CCOCC1 (configuration not stated)  SF-268 CNS           TGI           µM   =            28.8
16     Cc1ccc2c(c1C)-c1c(ccc(C)c1C)C(=O)C2=O  SF-268 CNS           TGI           µM   =            5.38
17  N#Cc1cccc(C(=O)Nc2cccc(NC(=O)c3cccc(C#N)c3)c2)c1  SF-268 CNS           TGI           µM   =              56
18  CN1CCN(c2nc(NCCCCNc3ccnc4cc(Cl)ccc34)c3ccccc3n2)CC1  SF-268 CNS           TGI           µM   =            33.9
19  CC1CC2C(=O)N(c3ccccc3)C(=O)C2c2c1c1ccccc1n2Cc1ccccc1 (configuration not stated)  SF-268 CNS           TGI           µM   >             100
20  Cc1cccc(NC(=O)c2cc3cc(N=Nc4ccccc4Cl)ccc3oc2=O)c1  SF-268 CNS           TGI           µM   =            84.4
21      CSc1nc(-c2ccc(C)cc2)c(C#N)c(=O)[nH]1  SF-268 CNS           TGI           µM   >             100
22  COc1ccc(C2C3CCc4ccccc4C3=NN2S(=O)(=O)c2ccc(Cl)cc2)cc1 (configuration not stated)  SF-268 CNS           TGI           µM   >             100
